System: Salinispora tropica CNB-440
TEST_PROTOCOL: Activity at Salinispora tropica CNB-440 wild type recombinant SalL expressed in Escherichia coli BL21(DE3) assessed as formation of S-Adenosyl methionine after 30 mins by HPLC analysis
EXPERIMENTAL_READOUT: Activity

INSERT INTO assay_data (input_smiles, readout_value) VALUES
  ('CSCC[C@H](N)C(=O)O', '1300%'),
  ('Nc1ncnc2c1ncn2[C@@H]1O[C@H](CCl)[C@@H](O)[C@H]1O', '1300%'),
  ('Nc1ncnc2c1ncn2[C@@H]1O[C@H](CI)[C@@H](O)[C@H]1O', '5560%');
